Entries and their measured composite z-score follow.
- Procedure text: small-molecule binders of probe aNOTCH3, primary screen, biochemical, small-molecule microarray, 635/667 nm fluorescence (AID 1120);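 also: probe is a biotin-tagged antibody raised against NOTCH3 rather than NOTCH3 protein; score merges spot fluorescence near 667 nm with spot signal to noise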
- Condition label: higher = more signal
Readout: composite z-score

[[record]]
structure_string = "C=C(C)c1cc2c(c(CCCCCC)n1)[Si](C(C)C)(C(C)C)OC2"
reported = -0.296

[[record]]
structure_string = "COCCOC(=O)N1C(=O)[C@@]2(c3cc(C#CC4=CCCCC4)ccc31)[C@H](C(N)=O)[C@H]1C(=O)O[C@H](c3ccccc3)[C@H](c3ccccc3)N1[C@@H]2c1ccccc1OCCO"
reported = -0.0057

[[record]]
structure_string = "COC(=O)[C@@]1(Cc2ccccc2N=[N+]=[N-])N=C(c2ccc(OCCCO)cc2)O[C@H]1c1ccccc1N=[N+]=[N-]"
reported = 0.149

[[record]]
structure_string = "C=C(COC)/C(=C/C[C@H](OC(=O)c1ccncc1)c1ccccc1OCCO)c1cnc2ccccc2c1"
reported = 0.0964


----------
- Target or system: Dickkopf-related protein 1 (Homo sapiens)
- Procedure text: DKK1 binders on small-molecule microarrays, primary screen, biochemical, small-molecule microarray, 635 nm fluorescence scan (AID 1106);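 also: score merges emission near 667 nm with signal to noise over three replicate slides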
- Condition label: DKK1 binding, higher = more signal
Entries and their measured composite z-score follow.
Readout: composite z-score

[[record]]
molecule = "COCCOC(=O)N1C(=O)[C@@]2(c3cc(C#CC4=CCCCC4)ccc31)[C@H](c1ccc(OCCO)cc1)N1[C@H](c3ccccc3)[C@H](c3ccccc3)OC(=O)[C@H]1[C@@H]2C(=O)N1CCN(c2ncccn2)CC1"
target_or_system = "Dickkopf-related protein 1 (Homo sapiens)"
reported = 0.605

[[record]]
molecule = "COC(=O)[C@@]1(Cc2ccc(F)cc2)[C@H]2c3cc(C(=O)N4CCCC4)n(CCN4CNCC4=O)c3C[C@H]2CN1C(=O)c1ccccc1"
target_or_system = "Dickkopf-related protein 1 (Homo sapiens)"
reported = -1.29

[[record]]
molecule = "CC(CO)N1C(=O)[C@@H]2[C@H]3C(=O)OCC=C[C@H]3OC23C=CCN(CCN2CCOCC2)C(=O)[C@@H]13 (stereo not given in full)"
target_or_system = "Dickkopf-related protein 1 (Homo sapiens)"
reported = 0.439

[[record]]
molecule = "CC(C)(C)N1CC=CC23O[C@@H]4C=CCOC(=O)[C@@H]4[C@H]2C(=O)N(CCCCCCO)[C@@H]3C1=O (stereo not given in full)"
target_or_system = "Dickkopf-related protein 1 (Homo sapiens)"
reported = -1.34

[[record]]
molecule = "CCOC(=O)C[C@H]1[C@H](OC(=O)Cc2ccc3c(c2)OCO3)[C@@H](NC(=O)CC(C)C)c2cc(OCCCO)ccc2N1C(=O)Cc1ccc(OC)cc1"
target_or_system = "Dickkopf-related protein 1 (Homo sapiens)"
reported = 0.0009

[[record]]
molecule = "CCC[C@@H]1C[C@@]1(CCC)[C@@H](NC(=O)OCc1ccccc1)c1ccc(-c2ccccc2)cc1"
target_or_system = "Dickkopf-related protein 1 (Homo sapiens)"
reported = -0.496

[[record]]
molecule = "CC1CC/C=C\\[C@H]2OC34C=CCN(C(C)C)C(=O)[C@H]3N(CCCCCCO)C(=O)[C@@H]4C2C(=O)O1 (stereo not given in full)"
target_or_system = "Dickkopf-related protein 1 (Homo sapiens)"
reported = -1.24

[[record]]
molecule = "C=C(C(=O)CC[C@@H](OC(C)=O)c1ccc(CO)o1)C(C)C"
target_or_system = "Dickkopf-related protein 1 (Homo sapiens)"
reported = 0.536

[[record]]
molecule = "COc1ccccc1CN1C(=O)c2ccccc2[C@@]2(Cc3ccccc3N(CC(F)(F)F)C2=O)[C@@H]1c1ccc(CO)cc1"
target_or_system = "Dickkopf-related protein 1 (Homo sapiens)"
reported = 0.564

[[record]]
molecule = "COC(=O)c1c2oc(c1C(=O)OC)C(=O)N(Cc1ccccc1)Cc1cn(nn1)C[C@H](Cc1ccccc1)NC(=O)N[C@H](CO)CC2"
target_or_system = "Dickkopf-related protein 1 (Homo sapiens)"
reported = -0.0193

[[record]]
molecule = "CN1C(=O)C2C=CC(C(O)c3ccccn3)N(N(c3ccccc3)c3ccccc3)C2C1=O (stereo not given)"
target_or_system = "Dickkopf-related protein 1 (Homo sapiens)"
reported = -0.0644

[[record]]
molecule = "COC(=O)c1c(CC[C@@H](CO)NC(=O)N[C@H](Cn2cc(C3(O)CCCCC3)nn2)C(C)C)oc(C(C)=O)c1C(=O)OC"
target_or_system = "Dickkopf-related protein 1 (Homo sapiens)"
reported = 0.788

[[record]]
molecule = "CCOC(=O)C1=CC[C@@H](c2ccccc2C(F)(F)F)N(S(=O)(=O)c2ccc(C)cc2)[C@H]1c1ccc(C#N)cc1"
target_or_system = "Dickkopf-related protein 1 (Homo sapiens)"
reported = 0.35

[[record]]
molecule = "O=C(NCC(F)(F)F)[C@@H]1c2ccccc2C(=O)N(Cc2cc(F)cc(C(F)(F)F)c2)[C@H]1c1ccc(CO)cc1"
target_or_system = "Dickkopf-related protein 1 (Homo sapiens)"
reported = -1.39

[[record]]
molecule = "CCOC(=O)C1=CC[C@@H](c2cccc(Cl)c2)N(S(=O)(=O)c2ccc(C)cc2)C1"
target_or_system = "Dickkopf-related protein 1 (Homo sapiens)"
reported = 0.0677

